# System: Acinetobacter baumannii
# testMethodNotes: Antimicrobial activity against Acinetobacter baumannii assessed as inhibition of microbial growth at 45 uM after 24 hrs
# Format: functional, organism-based
The source made the active and inactive calls. The rule behind the calls is not given here.
Could you please pick one outcome from this set? active, inactive

Please review the following examples before continuing.
INSERT INTO measurements (smilesstring, testedon, categorylabel) VALUES
  ('CCCCCCCN1C(=N)N(CCCC[C@H]2CNC(=N)N2CCCCC2CCCCC2)C[C@H]1Cc1cccc2ccccc12', 'Acinetobacter baumannii', 'active'),
  ('CCCCCCCN1C(=N)N(CCCC[C@H]2CNC(=N)N2CCC23CC4CC(CC(C4)C2)C3)C[C@@H]1CC1CCCCC1', 'Acinetobacter baumannii', 'active'),
  ('CCCC[C@H]1CN(CCCC[C@H]2CNC(=N)N2CCc2cccc(C(F)(F)F)c2)C(=N)N1CCCCC1CCCCC1', 'Acinetobacter baumannii', 'active'),
  ('N=C1NC[C@H](CCCCN2C[C@@H](Cc3cccc4ccccc34)N(CCCCC3CCCCC3)C2=N)N1CCc1cccc(C(F)(F)F)c1', 'Acinetobacter baumannii', 'active'),
  ('CCCC[C@H]1CN(CCCC[C@H]2CNC(=N)N2CCC23CC4CC(CC(C4)C2)C3)C(=N)N1CCc1ccc(-c2ccccc2)cc1', 'Acinetobacter baumannii', 'active'),
  ('CCCCCCCN1C(=N)N(CCCC[C@H]2CNC(=N)N2CCC23CC4CC(CC(C4)C2)C3)C[C@H]1Cc1cccc2ccccc12', 'Acinetobacter baumannii', 'active'),
  ('CCCCCCCN1C(=N)N(CCCC[C@H]2CNC(=N)N2CCC23C[C@H]4C[C@@H](C2)C[C@@H](C3)C4)C[C@@H]1CCCC', 'Acinetobacter baumannii', 'active'),
  ('N=C1NC[C@H](CCCCN2C[C@@H](Cc3cccc4ccccc34)N(CCCCC3CCCCC3)C2=N)N1CCCCC1CCCCC1', 'Acinetobacter baumannii', 'active'),
  ('CCCC[C@H]1CN(CCCC[C@H]2CNC(=N)N2CCc2cccc(C(F)(F)F)c2)C(=N)N1CCc1ccc(-c2ccccc2)cc1', 'Acinetobacter baumannii', 'active'),
  ('CCCC[C@H]1CN(CCCC[C@H]2CNC(=N)N2CCC23CC4CC(CC(C4)C2)C3)C(=N)N1CCCCC1CCCCC1', 'Acinetobacter baumannii', 'active');

Given "CCCCCCCN1C(=N)N(CCCC[C@H]2CNC(=N)N2CCCCC2CCCCC2)C[C@@H]1CC1CCCCC1" , state the outcome it received in this test.
active

Given "CCCCCCCN1C(=N)N(CCCC[C@H]2CNC(=N)N2CCc2cccc(C(F)(F)F)c2)C[C@@H]1CCCC" , state the outcome it received in this test.
active

Given "N=C1NC[C@H](CCCCN2C[C@@H](Cc3cccc4ccccc34)N(CCCCC3CCCCC3)C2=N)N1CCC12CC3CC(CC(C3)C1)C2" , state the outcome it received in this test.
inactive

Given "N=C1NC[C@H](CCCCN2C[C@@H](Cc3cccc4ccccc34)N(CCc3ccc(-c4ccccc4)cc3)C2=N)N1CCC12CC3CC(CC(C3)C1)C2" , state the outcome it received in this test.
inactive

Given "CCCCCCCN1C(=N)N(CCCC[C@H]2CNC(=N)N2CCCCC2CCCCC2)C[C@@H]1CCCC" , state the outcome it received in this test.
active

Given "N=C1NC[C@H](CCCCN2C[C@H](CC3CCCCC3)N(CCc3ccc(-c4ccccc4)cc3)C2=N)N1CCc1cccc(C(F)(F)F)c1" , state the outcome it received in this test.
active

Given "N=C1NC[C@H](CCCCN2C[C@@H](Cc3cccc4ccccc34)N(CCc3ccc(-c4ccccc4)cc3)C2=N)N1CCc1cccc(C(F)(F)F)c1" , state the outcome it received in this test.
active

Given "CCCCCCCN1C(=N)N(CCCC[C@H]2CNC(=N)N2CCc2cccc(C(F)(F)F)c2)C[C@@H]1CC1CCCCC1" , state the outcome it received in this test.
active

Given "N=C1NC[C@H](CCCCN2C[C@H](CC3CCCCC3)N(CCCCC3CCCCC3)C2=N)N1CCc1cccc(C(F)(F)F)c1" , state the outcome it received in this test.
active

Given "CCCC[C@H]1CN(CCCC[C@H]2CNC(=N)N2CCCCC2CCCCC2)C(=N)N1CCCCC1CCCCC1" , state the outcome it received in this test.
active

Given "N=C1NC[C@H](CCCCN2C[C@H](CC3CCCCC3)N(CCCCC3CCCCC3)C2=N)N1CCCCC1CCCCC1" , state the outcome it received in this test.
active

Given "N=C1NC[C@H](CCCCN2C[C@H](CC3CCCCC3)N(CCc3ccc(-c4ccccc4)cc3)C2=N)N1CCC12CC3CC(CC(C3)C1)C2" , state the outcome it received in this test.
active

###

viability at 48 h listing for selected molecules.
# testMethodNotes: Cytotoxicity against human A549 cells assessed as cell viability recovery up to 125 uM after 48 hrs by MTT assay
# Assay type: cell-based
# measurementParameters: read-out: Activity

INSERT INTO assay_data (smilesstring, obsvalue) VALUES
  ('CCCCCCCN1C(=N)N(CCCC[C@H]2CNC(=N)N2CCc2cccc(C(F)(F)F)c2)C[C@@H]1CCCC', '> 63%');

Next item in the queue.
The recorded viability at 48 h for "CCCCCCCN1C(=N)N(CCCC[C@H]2CNC(=N)N2CCC23C[C@H]4C[C@@H](C2)C[C@@H](C3)C4)C[C@@H]1CCCC" is 53%

###

# testMethodNotes: Cytotoxicity against human A549 cells assessed as cell viability recovery at 225 uM after 48 hrs by MTT assay
# Type: cell-based
# measurementParameters: read-out: Activity
assayMetric: viability at 48 h, 225 µM (%)
Express it in %; write the number only.

INSERT INTO assay_data (smilesstring, assaymetric, obsvalue) VALUES
  ('CCCCCCCN1C(=N)N(CCCC[C@H]2CNC(=N)N2CCc2cccc(C(F)(F)F)c2)C[C@@H]1CCCC', 'viability at 48 h, 225 µM', 40);

Next item in the queue.
The recorded viability at 48 h, 225 µM for "CCCCCCCN1C(=N)N(CCCC[C@H]2CNC(=N)N2CCC23C[C@H]4C[C@@H](C2)C[C@@H](C3)C4)C[C@@H]1CCCC" is 35

###

# Tested on: Acinetobacter baumannii
# testMethodNotes: Antimicrobial activity against Acinetobacter baumannii assessed as inhibition of microbial growth after 24 hrs
# Type: functional
Active and inactive are the calls of the source. The calls are words filed in the database; no cut-off is given here.
assayMetric: MIC

The examples below pair each entry with its known result.
INSERT INTO results (compound, assaymetric, obsvalue) VALUES
  ('CCCCCCCN1C(=N)NC[C@@H]1CCCCN1C[C@H]([C@@H](C)CC)N(CC(C)CC)C1=N (some centres undefined)', 'MIC', 'inactive'),
  ('CCCCCCCN1C(=N)N(CCCC[C@H]2CNC(=N)N2CCC23C[C@H]4C[C@@H](C2)C[C@@H](C3)C4)C[C@@H]1CCCC', 'MIC', '1.7 µM'),
  ('CCC(C)CN1C(=N)N(CCCC[C@H]2CNC(=N)N2CC2CCC(C)CC2)C[C@@H]1[C@@H](C)CC (some centres undefined)', 'MIC', 'inactive'),
  ('CCCCCCCN1C(=N)NC[C@@H]1CCCCN1C[C@H]([C@@H](C)CC)NC1=N', 'MIC', 'inactive'),
  ('CCC(C)CN1CCN(CCCC[C@H]2CNC(=N)N2CC2CCC(C)CC2)C1=N (some centres undefined)', 'MIC', 'inactive');

The recorded MIC for CCC[C@@H]1CN(CCCC[C@H]2CNC(=N)N2CC2CCC(C)CC2)C(=N)N1CC(C)CC (some centres undefined) is inactive

The recorded MIC for "CCCCCCCN1C(=N)N(CCCC[C@H]2CNC(=N)N2CCc2cccc(C(F)(F)F)c2)C[C@@H]1CCCC" is 1.6 µM

The recorded MIC for CCC[C@@H]1CN(CCCC[C@H]2CNC(=N)N2CC2CCCCC2)C(=N)N1CC(C)CC (some centres undefined) is inactive

The recorded MIC for CCC(C)CN1CCN(CCCC[C@H]2CNC(=N)N2CC2CCCCC2)C1=N (some centres undefined) is inactive

###

# Tested on: Staphylococcus aureus
# testMethodNotes: Ratio of MIC for Staphylococcus aureus measured after 8 cycle passage to MIC for wild type Staphylococcus aureus
# Assay type: functional
Ratio listing for selected compounds.

The recorded Ratio for "CCCCCCCN1C(=N)N(CCCC[C@H]2CNC(=N)N2CCC23C[C@H]4C[C@@H](C2)C[C@@H](C3)C4)C[C@@H]1CCCC" is 16

The recorded Ratio for CN[C@H](CC(C)C)C(=O)N[C@H]1C(=O)N[C@@H](CC(N)=O)C(=O)N[C@H]2C(=O)N[C@H]3C(=O)N[C@H](C(=O)N[C@H](C(=O)O)c4cc(O)cc(O)c4-c4cc3ccc4O)[C@H](O)c3ccc(c(Cl)c3)Oc3cc2cc(c3O[C@@H]2O[C@H](CO)[C@@H](O)[C@H](O)[C@H]2O[C@H]2C[C@](C)(N)[C@H](O)[C@H](C)O2)Oc2ccc(cc2Cl)[C@H]1O [VANCOMYCIN] is 128

The recorded Ratio for "CCCCCCCN1C(=N)N(CCCC[C@H]2CNC(=N)N2CCc2cccc(C(F)(F)F)c2)C[C@@H]1CC1CCCCC1" is 4

The recorded Ratio for "CCCCCCCN1C(=N)N(CCCC[C@H]2CNC(=N)N2CCCCC2CCCCC2)C[C@@H]1CC1CCCCC1" is 16

The recorded Ratio for "CCCCCCCN1C(=N)N(CCCC[C@H]2CNC(=N)N2CCc2cccc(C(F)(F)F)c2)C[C@@H]1CCCC" is 2

The recorded Ratio for "CCCC[C@H]1CN(CCCC[C@H]2CNC(=N)N2CCc2cccc(C(F)(F)F)c2)C(=N)N1CCCCC1CCCCC1" is 2
